This collection of values is drawn from PubChem BioAssay (NCATS).

biological target: Cytochrome P450 3A4 (Homo sapiens); test: qHTS Assay for Inhibitors and Substrates of Cytochrome P450 3A4 (AID 884); conditions: recombinant CYP3A4, Luciferin-PPXE luminescence; series mostly up to 57.1 µM; note: nearly all actives have a fitted effect of over 50% in size
Results filed as inconclusive are left out. Activity calls are given as the source filed them. Calls come from the whole dose curve; as a rule, active = well fitted inhibition curve with a large enough effect; inconclusive = small, poorly fitted or top-dose-only effect; inactive = no such curve, though single readings can be large or run the other way.
Your answer must be one of the following: class 1 for active, class 0 for inactive

**Q:** Lab log entry: `C[C@@H]1CC[C@@]2(OC1)O[C@H]1[C@@H](O)[C@H]3[C@@H]4CC[C@H]5C[C@@H](O[C@@H]6O[C@H](CO)[C@H](O[C@@H]7O[C@H](CO)[C@@H](O)[C@H](O[C@@H]8OC[C@@H](O)[C@H](O)[C@H]8O)[C@H]7O[C@@H]7O[C@H](CO)[C@@H](O)[C@H](O[C@@H]8O[C@H](CO)[C@@H](O)[C@H](O)[C@H]8O)[C@H]7O)[C@H](O)[C@H]6O)[C@H](O)C[C@]5(C)[C@H]4CC[C@]3(C)[C@H]1[C@@H]2C` — outcome as called in the assay?
**A:** class 0

**Q:** Test call for this molecule, please: `c1ccc2cc3c(cc2c1)-c1cccc2cccc-3c12`
**A:** class 0

**Q:** Could you check what this test reported for `CCCCCCCCn1sccc1=O` ?
**A:** class 1

**Q:** Which outcome was assigned to COc1cc2c(cc1OC)[C@@H]1C(=O)c3ccc(OC)c(CC=C(C)C)c3OC1CO2 (some centres not stated) in this test?
**A:** class 1

**Q:** Each molecule tested received a call. Report the one for C[C@@]12C=CC(=O)C=C1CCC1C2CC[C@]2(C)C(=O)CCC12 (some centres not stated) .
**A:** class 0

**Q:** Call for entry `CC1=CC(=O)c2c(O)cccc2C1=O` :
**A:** class 0

**Q:** For this molecule, state the assay outcome: COc1cc2c(cc1O)C(CCc1ccc(Cl)cc1)N(C)CC2 (configuration not stated)
**A:** class 0

----------
target: Androgen receptor (Homo sapiens) (UniProt P10275); experiment: qHTS assay for small molecule agonists of androgen receptor signaling (AID 588515); settings: AR-UAS-bla HEK293, beta-lactamase ratio, agonist 16 h; active compounds read high; note: % is set by controls: 0 for no effect and ±100 for the full control effect
Sequence (P10275 whole entry, looked up): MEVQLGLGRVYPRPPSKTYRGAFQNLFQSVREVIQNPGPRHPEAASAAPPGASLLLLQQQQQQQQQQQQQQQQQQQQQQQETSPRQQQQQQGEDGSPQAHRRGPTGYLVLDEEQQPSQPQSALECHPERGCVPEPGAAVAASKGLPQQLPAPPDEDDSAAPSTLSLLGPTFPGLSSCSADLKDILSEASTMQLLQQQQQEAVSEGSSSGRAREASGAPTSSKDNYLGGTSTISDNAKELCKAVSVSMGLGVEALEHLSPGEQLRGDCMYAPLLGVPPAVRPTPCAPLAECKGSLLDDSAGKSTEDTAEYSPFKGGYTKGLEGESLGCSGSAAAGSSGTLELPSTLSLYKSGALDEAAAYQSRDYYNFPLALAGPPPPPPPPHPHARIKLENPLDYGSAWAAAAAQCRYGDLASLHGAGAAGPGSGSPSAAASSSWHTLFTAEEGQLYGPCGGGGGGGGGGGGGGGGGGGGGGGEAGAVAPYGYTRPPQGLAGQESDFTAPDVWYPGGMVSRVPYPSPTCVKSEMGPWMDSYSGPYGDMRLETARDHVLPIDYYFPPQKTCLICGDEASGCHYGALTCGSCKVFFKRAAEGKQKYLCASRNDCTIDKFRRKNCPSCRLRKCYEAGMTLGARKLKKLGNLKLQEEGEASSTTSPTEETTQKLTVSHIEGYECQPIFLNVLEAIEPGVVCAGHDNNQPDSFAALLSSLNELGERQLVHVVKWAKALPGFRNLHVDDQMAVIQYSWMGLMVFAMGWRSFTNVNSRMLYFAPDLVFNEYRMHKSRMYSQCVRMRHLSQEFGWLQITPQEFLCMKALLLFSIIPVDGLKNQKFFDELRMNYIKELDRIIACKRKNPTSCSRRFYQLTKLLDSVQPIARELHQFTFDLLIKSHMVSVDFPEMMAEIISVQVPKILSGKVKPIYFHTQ
Results filed as inconclusive are left out.
measurement_name: activation (%)
Only the number, expressed in %, is required.

# `CCOP(=S)(OCC)Oc1ncn(-c2ccccc2)n1` with Androgen receptor (Homo sapiens) (UniProt P10275): activation is 5.78

Record for `CNC(=O)O/N=C(\SC)C(=O)N(C)C` under target or system Androgen receptor (Homo sapiens) (UniProt P10275): activation reported as -0.759

For `O=[N+]([O-])C(Br)Br` on Androgen receptor (Homo sapiens) (UniProt P10275), measured activation was 6.33

Field activation (system: Androgen receptor (Homo sapiens) (UniProt P10275)) for entry `CC(C)CCCCCCOC(=O)c1ccccc1C(=O)OCCCCCCC(C)C` = 13.4

activation for Androgen receptor (Homo sapiens) (UniProt P10275) with input CCOP(=S)(OCC)SC(CCl)N1C(=O)c2ccccc2C1=O (stereo unspecified) equals -16.4

# activation measured on Androgen receptor (Homo sapiens) (UniProt P10275) for item `CCC(C)(C)c1cc(-n2nc3ccccc3n2)c(O)c(C(C)(C)CC)c1` = 3.42

Bench note, Androgen receptor (Homo sapiens) (UniProt P10275): entry `O=[N+]([O-])Nc1nccn1Cc1ccc(Cl)nc1` , its activation = 20.9

Entry `O=C1C=CC(=O)c2ccccc21` under Androgen receptor (Homo sapiens) (UniProt P10275) had activation of 0.338

The measured activation that `C[N+]1(C)CCCCC1` showed for Androgen receptor (Homo sapiens) (UniProt P10275) is 4.04

Summary: `CNC(=O)N(C)c1nc2ccccc2s1` , Androgen receptor (Homo sapiens) (UniProt P10275), activation = -11.3

Readout activation for `CC1(C)[C@H](C(=O)O[C@H](C#N)c2cccc(Oc3ccccc3)c2)[C@@H]1C=C(Br)Br` , test system Androgen receptor (Homo sapiens) (UniProt P10275), was -5.24

Tested on Androgen receptor (Homo sapiens) (UniProt P10275): `COc1cc(OC)nc(NC(=O)NS(=O)(=O)c2cc(NC=O)ccc2C(=O)N(C)C)n1` . Observed activation: 1.85

Log: Androgen receptor (Homo sapiens) (UniProt P10275), compound `C#CCN1C(=O)COc2cc(F)c(N3C(=O)C4=C(CCCC4)C3=O)cc21` , activation = 8.69

Entry `CCCCN(CC)C(=O)SCCC` : activation on Androgen receptor (Homo sapiens) (UniProt P10275) = 8.69

# activation measured on Androgen receptor (Homo sapiens) (UniProt P10275) for item `Nc1c(Cl)c(F)nc(OCC(=O)O)c1Cl` = 0.917

Considering `Cc1nn(-c2cc(NS(C)(=O)=O)c(Cl)cc2Cl)c(=O)n1C(F)F` , its activation with Androgen receptor (Homo sapiens) (UniProt P10275) was recorded as -3.3

activation value, target or system Androgen receptor (Homo sapiens) (UniProt P10275), for `C/C(=N\C(N)=O)N(C)Cc1ccc(Cl)nc1` : -2.44

Log: Androgen receptor (Homo sapiens) (UniProt P10275), compound CC(C)(C)C(O)C(Oc1ccc(-c2ccccc2)cc1)n1cncn1 (stereo unspecified) , activation = -4.84

# value of activation, Androgen receptor (Homo sapiens) (UniProt P10275), item `CCCCCCCCCCCCC1=C(OC(C)=O)C(=O)c2ccccc2C1=O` = -4.72

Androgen receptor (Homo sapiens) (UniProt P10275) activation of `Cc1[nH]c(=O)n(C(C)(C)C)c(=O)c1Cl` is 0.796

Reported activation (Androgen receptor (Homo sapiens) (UniProt P10275)) for entry `CC(C)(C)N(NC(=O)c1ccc(Cl)cc1)C(=O)c1ccccc1` is 4.02

Observed activation on Androgen receptor (Homo sapiens) (UniProt P10275), entry `CC1=C(C(=O)Nc2ccccc2)SCCO1` , equals -8.15

Value sought: activation, system Androgen receptor (Homo sapiens) (UniProt P10275), item CCOP(=O)(SC(C)CC)SC(C)CC (stereo unspecified) . Result: 7.1

Query CCOP(=O)(OCC)OC(Cl)C(Cl)(Cl)Cl (stereo unspecified) on Androgen receptor (Homo sapiens) (UniProt P10275); activation returned: -3.01

Tested on Androgen receptor (Homo sapiens) (UniProt P10275): COP(=O)(OC)OC(Br)C(Cl)(Cl)Br (stereo unspecified) . Observed activation: 4.22

Given the compound `CCOP(=O)(OCC)SCS(=O)(=O)C(C)(C)C` and test system Androgen receptor (Homo sapiens) (UniProt P10275), the measured activation is 11.8
